B1: NEK8 (parent)
chain: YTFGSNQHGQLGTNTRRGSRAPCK

# Variants of: B1
# assay.overview: protein stability index of a GFP-peptide fusion (GPS, HEK-293T) (PSI 1-6); higher = more stable;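 note: lentivirally expressed fusions sorted by FACS into six bins by GFP to DsRed ratio, PSI derived from sequencing read proportions per bin multiplied by bin number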
# details: c terminus: a fixed tail appended
parameter.measured: protein stability index
Reply with just the number.

In [3]: df
Out[3]:
   mutation_id  number
0          F3I    3.89
1          Y1Q    4.99
2          T2H    1.95

Query: Consider the variant shown here: Y1L What is its recorded protein stability index?
Reply: 4.13

Query: For the variant Y1V , what protein stability index is on record?
Reply: 4.6

Query: May I ask what protein stability index has been recorded for A21S ?
Reply: 3.84
